Target: Receptor tyrosine-protein kinase erbB-4 (Homo sapiens) (UniProt Q15303);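 also: values are averaged percent inhibition of ERBB4 kinase activity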
Sequence (Q15303 whole entry): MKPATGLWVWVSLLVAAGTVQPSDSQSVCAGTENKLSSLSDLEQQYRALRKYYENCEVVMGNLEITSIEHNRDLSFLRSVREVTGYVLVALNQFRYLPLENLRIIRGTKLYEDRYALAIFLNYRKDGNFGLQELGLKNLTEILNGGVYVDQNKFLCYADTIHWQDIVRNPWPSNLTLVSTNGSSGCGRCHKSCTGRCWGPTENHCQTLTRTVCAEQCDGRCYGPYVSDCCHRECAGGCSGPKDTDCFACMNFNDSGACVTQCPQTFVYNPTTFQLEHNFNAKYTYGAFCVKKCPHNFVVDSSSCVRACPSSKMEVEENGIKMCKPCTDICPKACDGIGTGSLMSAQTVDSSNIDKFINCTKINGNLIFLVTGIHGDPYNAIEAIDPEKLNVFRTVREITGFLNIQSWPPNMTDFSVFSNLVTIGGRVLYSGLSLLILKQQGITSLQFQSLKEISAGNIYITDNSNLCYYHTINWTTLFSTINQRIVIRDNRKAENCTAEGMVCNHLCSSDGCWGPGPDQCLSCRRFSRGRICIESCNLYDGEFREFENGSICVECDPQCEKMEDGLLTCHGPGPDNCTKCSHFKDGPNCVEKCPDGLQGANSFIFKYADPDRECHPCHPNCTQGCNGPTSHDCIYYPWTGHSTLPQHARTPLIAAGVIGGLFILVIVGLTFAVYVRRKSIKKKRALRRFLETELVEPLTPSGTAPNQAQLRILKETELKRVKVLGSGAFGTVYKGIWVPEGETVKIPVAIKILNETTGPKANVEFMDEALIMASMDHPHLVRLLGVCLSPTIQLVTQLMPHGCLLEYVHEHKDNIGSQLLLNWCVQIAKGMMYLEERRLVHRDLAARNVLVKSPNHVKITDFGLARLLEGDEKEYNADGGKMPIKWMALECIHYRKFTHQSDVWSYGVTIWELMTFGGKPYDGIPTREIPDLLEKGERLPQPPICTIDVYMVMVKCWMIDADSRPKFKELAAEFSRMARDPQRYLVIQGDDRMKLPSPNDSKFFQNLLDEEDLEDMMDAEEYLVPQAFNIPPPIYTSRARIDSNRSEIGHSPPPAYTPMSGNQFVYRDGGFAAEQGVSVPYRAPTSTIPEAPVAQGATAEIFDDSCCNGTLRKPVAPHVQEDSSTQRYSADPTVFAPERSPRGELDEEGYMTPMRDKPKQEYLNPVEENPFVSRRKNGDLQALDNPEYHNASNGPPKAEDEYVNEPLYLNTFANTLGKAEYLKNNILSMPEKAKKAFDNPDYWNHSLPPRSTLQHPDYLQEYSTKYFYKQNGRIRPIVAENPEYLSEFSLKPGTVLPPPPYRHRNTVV
Settings: at 0.1 µM
# inhibition per entry
reported_endpoint: inhibition

chemical_string	reported_endpoint	test_value
c1ccc(Nc2ncc(-c3ccccc3)o2)cc1	inhibition	11%
[O-][S+]1CCN(Cc2ccc(-c3ccc4ncnc(Nc5ccc(OCc6ccccc6)c(Cl)c5)c4c3)o2)CC1	inhibition	69.6%
Nc1ccc(C#Cc2cncnc2Nc2ccc(OCc3cccc(F)c3)c(Cl)c2)cc1	inhibition	12.9%
CN(C)C(=O)O[C@H]1CN[C@H](C#Cc2cc3ncnc(Nc4ccc(OCc5cccc(F)c5)c(Cl)c4)c3s2)C1	inhibition	92.5%
NS(=O)(=O)c1ccc(NC=C2C(=O)Nc3ccc4ncsc4c32)cc1	inhibition	17.8%

----------
Molecular target: Sphingosine kinase 1 (Homo sapiens);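 also: mean percent inhibition of SPHK1 activity, measured within the GSK PKIS screening panel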
Details: at 0.1 µM
Reported inhibition values are given for each entry in this list.
reported_endpoint: inhibition (%)

chemical_string	reported_endpoint	test_value
Cc1ccc2c(-c3ccnc(Nc4ccc5c(c4)OCCO5)n3)c(-c3ccc(C(F)(F)F)cc3)nn2n1	inhibition	0
NS(=O)(=O)c1ccc(-c2cc3ccncc3cc2OCc2ccccc2)cc1	inhibition	1.82
COc1cccc(-n2nc(C)c3c(N/N=C(\C)c4ccncc4)ncnc32)c1	inhibition	1.12
Cc1cc(Cl)cc2c1NC(=O)C2=NNc1ccc(S(N)(=O)=O)cc1	inhibition	0.93
CCOc1nccc2c1nc(-c1nonc1N)n2CC	inhibition	0.81
NS(=O)(=O)c1ccc(N/N=C2\C(=O)Nc3ccc(Cl)cc32)cc1	inhibition	0.4
CCS(=O)(=O)c1ccc(OC)c(Nc2ncc(-c3cccc(OC)c3)o2)c1	inhibition	-0.07
O=C(Nc1ccc(Oc2ccc3[nH]c(NC(=O)c4ccco4)nc3c2)cc1)Nc1cc(C(F)(F)F)ccc1F	inhibition	0.3
Cc1ccc2c(-c3ccnc(Nc4cccc(C(F)(F)F)c4)n3)c(-c3ccccc3)nn2n1	inhibition	0.67
CN(C)CCCn1c(-c2nonc2N)nc2cnccc21	inhibition	2.52

----------
Biological target: Serine/threonine-protein kinase PAK 2 (Homo sapiens);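 also: reported values are mean inhibition of PAK2, averaged over measurements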
Conditions: at 1 µM
reported_endpoint: inhibition (%)

chemical_string	quantity_unit	test_value
COc1ccc(-c2nn3ncccc3c2-c2ccnc(Nc3cccc(C(F)(F)F)c3)n2)cc1	%	-0.8
NS(=O)(=O)c1ccc(-c2cc3ccncc3cc2OCc2ccccc2)cc1	%	0.46
O=C(Nc1ccc(Oc2ccc3[nH]c(NC(=O)c4ccco4)nc3c2)cc1)Nc1cc(C(F)(F)F)ccc1F	%	0.57
CCn1c(-c2nonc2N)nc2ccc(F)cc21	%	3.8
NC(=O)c1cccc(Nc2nccc(Nc3cccc(F)c3)n2)c1	%	0.69

----------
Target: SRSF protein kinase 3 (Homo sapiens) (UniProt Q9UPE1);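 also: mean of replicate inhibition values against MSSK1 kinase, profiled within the GSK PKIS kinase inhibitor set screen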
Sequence (Q9UPE1 whole entry): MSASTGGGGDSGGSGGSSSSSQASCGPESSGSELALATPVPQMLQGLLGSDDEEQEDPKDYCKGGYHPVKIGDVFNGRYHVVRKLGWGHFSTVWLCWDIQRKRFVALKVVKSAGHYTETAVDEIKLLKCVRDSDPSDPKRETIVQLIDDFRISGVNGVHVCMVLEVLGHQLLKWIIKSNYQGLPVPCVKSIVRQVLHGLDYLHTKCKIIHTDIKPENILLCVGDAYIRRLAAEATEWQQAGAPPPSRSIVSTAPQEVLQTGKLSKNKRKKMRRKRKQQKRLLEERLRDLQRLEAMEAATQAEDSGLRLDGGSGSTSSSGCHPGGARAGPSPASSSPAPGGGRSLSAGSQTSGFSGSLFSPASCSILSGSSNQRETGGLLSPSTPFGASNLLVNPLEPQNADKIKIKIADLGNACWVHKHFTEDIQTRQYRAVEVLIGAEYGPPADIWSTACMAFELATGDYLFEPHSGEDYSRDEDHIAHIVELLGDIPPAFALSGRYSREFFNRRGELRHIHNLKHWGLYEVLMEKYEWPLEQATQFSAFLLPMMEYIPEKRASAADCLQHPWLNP
Conditions: at 0.1 µM
# inhibition listing for each entry below
reported_endpoint: inhibition (%)

chemical_string	test_value
NC(=O)c1cccc(Nc2nccc(Nc3cccc(F)c3)n2)c1	-1.02
OCc1ccc(-c2nc(-c3ccccn3)c(-c3ccc4c(c3)OCO4)[nH]2)cc1	1.23
Cc1cc(O)cc(C)c1/C=C/c1cncc(C(=O)N(C)C)c1	1.6
Nc1nccc(C#Cc2cncnc2Nc2ccc(OCc3cccc(F)c3)c(Cl)c2)n1	0.77
NS(=O)(=O)c1ccc(N/N=C2\C(=O)Nc3ccc(Cl)cc32)cc1	-0.26

----------
Listing of entries alongside the reported inhibition.
Biological target: Casein kinase I isoform gamma-2 (Homo sapiens) (UniProt P78368);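 also: values are mean inhibition figures reported as part of the GSK PKIS dataset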
Sequence (P78368 whole entry, looked up, canonical isoform): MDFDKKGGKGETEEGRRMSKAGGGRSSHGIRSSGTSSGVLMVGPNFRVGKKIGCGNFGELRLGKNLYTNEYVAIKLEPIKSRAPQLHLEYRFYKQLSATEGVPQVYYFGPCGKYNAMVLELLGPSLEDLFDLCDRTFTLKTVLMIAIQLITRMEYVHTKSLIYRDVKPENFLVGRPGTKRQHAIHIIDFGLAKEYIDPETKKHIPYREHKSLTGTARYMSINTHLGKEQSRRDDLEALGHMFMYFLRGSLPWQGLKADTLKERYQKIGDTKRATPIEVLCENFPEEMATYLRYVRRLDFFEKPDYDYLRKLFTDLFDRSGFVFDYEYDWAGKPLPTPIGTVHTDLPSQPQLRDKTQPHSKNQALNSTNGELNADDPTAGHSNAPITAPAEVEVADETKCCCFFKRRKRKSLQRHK
Details: at 0.1 µM
reported_endpoint: inhibition (%)

chemical_string	test_value
CN(C)C(=O)O[C@@H]1CN[C@@H](C#Cc2cc3ncnc(Nc4ccc(OCc5cccc(F)c5)c(Cl)c4)c3s2)C1	1.45
O=S(=O)(CCOCc1ccc(-c2ccc3ncnc(Nc4ccc(OCc5cccc(F)c5)c(Cl)c4)c3c2)o1)c1ccccc1	0.09
CCS(=O)(=O)c1ccc(OC)c(Nc2nccc(N(C)c3ccc4c(C)n[nH]c4c3)n2)c1	3.88
N#Cc1cccc(Nc2nccc(-c3cnn4ncccc34)n2)c1	6.38
NC(=O)c1cccc(Nc2nccc(Nc3cccc(F)c3)n2)c1	0.97
CN1CCN(C(=O)c2ccc(NC(=O)Nc3ccc(N(C)c4ccnc(Nc5ccc(CS(C)(=O)=O)cc5)n4)cc3)cc2)CC1	1.94
[O-][S+]1CCN(Cc2ccc(-c3ccc4ncnc(Nc5ccc(OCc6ccccc6)c(Cl)c5)c4c3)o2)CC1	0.8
CCn1c(-c2nonc2N)nc2ccc(F)cc21	5.17
NS(=O)(=O)c1cccc(Nc2cc(-c3ccc(F)cc3)n[nH]2)c1	1.72
